Source of measurements: paper PMC3610763

# formation of conjugates equivalent to G1/G2 from the analogue, versus capsaicin measurements, system: human liver microsomes

Look over these answered cases.
- Molecule: "CCCCCCCCC(=O)NCc1ccccc1 [N-benzylnonanamide]"
  Data value: "diminished"
- Molecule: "CCCCCCCCC(=O)NCc1cccc(OC)c1 [N-(3-methoxybenzyl)nonanamide]"
  Data value: "diminished"
- Molecule: "CCCCCCCCC(=O)NCc1ccc(OC)c(OC)c1 [N-(3,4-dimethoxybenzyl)nonanamide]"
  Data value: "diminished"
- Molecule: "CCCCCCCCC(=O)NCc1ccc(O)c(OC)c1 [nonivamide, N-vanillylnonanamide]"
  Data value: "unchanged"

Task item: Value lookup for formation of conjugates equivalent to G1/G2 from the analogue, versus capsaicin; key = CCCCCCCCC(=O)NCc1ccc(OC)c(O)c1 [N-(3-hydroxy-4-methoxybenzyl)nonanamide]
Reply: unchanged
